Test system: Escherichia coli
method: Antibacterial activity against Escherichia coli at 50 ug/ml after 18 to 24 hrs by disc diffusion method
Format: functional
particulars: read-out: IZ
Would you mind telling me the reported zone of inhibition at 50 µg/mL of each entry?
Kindly provide the numeric value in mm only, without the unit symbol.

Data point: N=c1sc(-c2ccc(F)cc2)nn1CC(=O)N1c2ccccc2Sc2ccc(Cl)cc21 ; zone of inhibition at 50 µg/mL = 7

Reported zone of inhibition at 50 µg/mL ( COc1ccc(-c2nn(CC(=O)N3c4ccccc4Sc4ccccc43)c(=N)s2)cc1OC ) = 13

Entry CCCc1nn(CC(=O)N2c3ccccc3Sc3ccccc32)c(=N)s1 ; zone of inhibition at 50 µg/mL = 11

Data point: N=c1sc(-c2cccs2)nn1CC(=O)N1c2ccccc2Sc2ccc(C(F)(F)F)cc21 ; zone of inhibition at 50 µg/mL = 8

Item: CCCc1nn(CC(=O)N2c3ccccc3Sc3ccc(C(F)(F)F)cc32)c(=N)s1 | zone of inhibition at 50 µg/mL: 6

The recorded zone of inhibition at 50 µg/mL for N=c1sc(-c2ccc(Cl)cc2)nn1CC(=O)N1c2ccccc2Sc2ccc(C(F)(F)F)cc21 is 11

Note to self: zone of inhibition at 50 µg/mL recorded for N=c1sc(-c2ccc(Cl)cc2)nn1CC(=O)N1c2ccccc2Sc2ccc(Cl)cc21 was 12

====

method: Selectivity index, ratio of IC50 for African green monkey Vero cells to MIC for Mycobacterium tuberculosis H37Rv ATCC 27294
Format: toxicity, cell-based
quantity-measured: selectivity ratio

So, CCCc1nn(CC(=O)N2c3ccccc3Sc3ccc(C(F)(F)F)cc32)c(=N)s1 ? Its selectivity ratio was 76.4

Query N=c1sc(-c2ccc(F)cc2)nn1CC(=O)N1c2ccccc2Sc2ccc(Cl)cc21 yields selectivity ratio of 149

Cc1nn(CC(=O)N2c3ccccc3Sc3ccc(Cl)cc32)c(=N)s1 has a reported selectivity ratio of 294

// selectivity ratio lookup, compound = N=c1sc(-c2ccc(F)cc2)nn1CC(=O)N1c2ccccc2Sc2ccc(C(F)(F)F)cc21 , result: 458

Measured selectivity ratio of N=c1sc(-c2ccc(F)cc2)nn1CC(=O)N1c2ccccc2Sc2ccccc21 : 79.1

So for CCCc1nn(CC(=O)N2c3ccccc3Sc3ccc(Cl)cc32)c(=N)s1 , the logged selectivity ratio turned out to be 306

====

Test system: Pseudomonas aeruginosa
method: Antibacterial activity against Pseudomonas aeruginosa at 75 ug/ml after 18 to 24 hrs by disc diffusion method
Type: functional
particulars: read-out: IZ
quantity-measured: zone of inhibition at 75 µg/mL (mm)
The reply should be a number in mm, with the unit left off.

The compound identified as N=c1sc(-c2cccs2)nn1CC(=O)N1c2ccccc2Sc2ccc(C(F)(F)F)cc21 registered its zone of inhibition at 75 µg/mL at 12

Looking up N=c1sc(-c2ccc(F)cc2)nn1CC(=O)N1c2ccccc2Sc2ccc(Cl)cc21 , I see its zone of inhibition at 75 µg/mL listed as 10

According to the records, this compound N=c1sc(-c2ccc(F)cc2)nn1CC(=O)N1c2ccccc2Sc2ccccc21 displays zone of inhibition at 75 µg/mL of 12

zone of inhibition at 75 µg/mL measured on Cc1ccc(-c2nn(CC(=O)N3c4ccccc4Sc4ccc(C(F)(F)F)cc43)c(=N)s2)cc1 = 9

Value of zone of inhibition at 75 µg/mL reported for the compound COc1ccc(-c2nn(CC(=O)N3c4ccccc4Sc4ccc(C(F)(F)F)cc43)c(=N)s2)cc1OC is 9

====

Tested on: Pseudomonas aeruginosa
method: Antibacterial activity against Pseudomonas aeruginosa at 50 ug/ml after 18 to 24 hrs by disc diffusion method
Assay type: functional
particulars: read-out: IZ
Kindly state zone of inhibition at 50 µg/mL for each of the entries shown.
Enter your answer as a number in mm; do not include the unit.

Note to self: zone of inhibition at 50 µg/mL recorded for N=c1sc(-c2ccc(Cl)cc2)nn1CC(=O)N1c2ccccc2Sc2ccccc21 was 7

response.value for N=c1sc(-c2ccc(Cl)cc2)nn1CC(=O)N1c2ccccc2Sc2ccc(Cl)cc21 (field: zone of inhibition at 50 µg/mL) = 15

zone of inhibition at 50 µg/mL measured on Cc1ccc(-c2nn(CC(=O)N3c4ccccc4Sc4ccccc43)c(=N)s2)cc1 = 9

Kindly note the recorded zone of inhibition at 50 µg/mL for CCCc1nn(CC(=O)N2c3ccccc3Sc3ccc(Cl)cc32)c(=N)s1 , which is 10

Value of measured zone of inhibition at 50 µg/mL for the entry N=c1sc(-c2ccc(Cl)cc2)nn1CC(=O)N1c2ccccc2Sc2ccc(C(F)(F)F)cc21 : 9

// sample O=C(O)c1cn(C2CC2)c2cc(N3CCNCC3)c(F)cc2c1=O , its zone of inhibition at 50 µg/mL was 18

Entry COc1ccc(-c2nn(CC(=O)N3c4ccccc4Sc4ccc(C(F)(F)F)cc43)c(=N)s2)cc1OC ; zone of inhibition at 50 µg/mL = 6

The molecule identified as Cc1nn(CC(=O)N2c3ccccc3Sc3ccc(Cl)cc32)c(=N)s1 registered its zone of inhibition at 50 µg/mL at 9

Noted for Cc1nn(CC(=O)N2c3ccccc3Sc3ccccc32)c(=N)s1 : its zone of inhibition at 50 µg/mL reads 20

Per the records, this molecule ( Cc1ccc(-c2nn(CC(=O)N3c4ccccc4Sc4ccc(C(F)(F)F)cc43)c(=N)s2)cc1 ) has zone of inhibition at 50 µg/mL equal to 6

Form: molecule = N=c1sc(-c2cccs2)nn1CC(=O)N1c2ccccc2Sc2ccccc21 ; zone of inhibition at 50 µg/mL = 2

The molecule listed as N=c1sc(-c2ccc(F)cc2)nn1CC(=O)N1c2ccccc2Sc2ccc(Cl)cc21 has a reported zone of inhibition at 50 µg/mL of 7

Measured zone of inhibition at 50 µg/mL of COc1ccc(-c2nn(CC(=O)N3c4ccccc4Sc4ccccc43)c(=N)s2)cc1OC : 20

According to the records, this molecule COc1ccc(-c2nn(CC(=O)N3c4ccccc4Sc4ccc(Cl)cc43)c(=N)s2)cc1OC displays zone of inhibition at 50 µg/mL of 4

molecule N=c1sc(-c2cccs2)nn1CC(=O)N1c2ccccc2Sc2ccc(Cl)cc21 , zone of inhibition at 50 µg/mL observed: 7

What the record says about CCCc1nn(CC(=O)N2c3ccccc3Sc3ccccc32)c(=N)s1 : zone of inhibition at 50 µg/mL is 11

zone of inhibition at 50 µg/mL in this record for N=c1sc(-c2ccc(F)cc2)nn1CC(=O)N1c2ccccc2Sc2ccccc21 : 8

Value of measured zone of inhibition at 50 µg/mL for the entry N=c1sc(-c2ccc(F)cc2)nn1CC(=O)N1c2ccccc2Sc2ccc(C(F)(F)F)cc21 : 7

Input N=c1sc(-c2cccs2)nn1CC(=O)N1c2ccccc2Sc2ccc(C(F)(F)F)cc21 . Output zone of inhibition at 50 µg/mL: 8

Reported zone of inhibition at 50 µg/mL for Cc1nn(CC(=O)N2c3ccccc3Sc3ccc(C(F)(F)F)cc32)c(=N)s1 was 12

In plain terms, CCCc1nn(CC(=O)N2c3ccccc3Sc3ccc(C(F)(F)F)cc32)c(=N)s1 has a documented zone of inhibition at 50 µg/mL of 3

Item: Cc1ccc(-c2nn(CC(=O)N3c4ccccc4Sc4ccc(Cl)cc43)c(=N)s2)cc1 | zone of inhibition at 50 µg/mL: 4

====

Provide the reported zone of inhibition at 75 µg/mL of each item.
Tested on: Pseudomonas aeruginosa
method: Antibacterial activity against Pseudomonas aeruginosa at 75 ug/ml after 18 to 24 hrs by disc diffusion method
Assay type: functional
particulars: read-out: IZ
Numbers only; they are read as mm.

Kindly note the recorded zone of inhibition at 75 µg/mL for Cc1ccc(-c2nn(CC(=O)N3c4ccccc4Sc4ccc(Cl)cc43)c(=N)s2)cc1 , which is 7

# zone of inhibition at 75 µg/mL of N=c1sc(-c2ccc(Cl)cc2)nn1CC(=O)N1c2ccccc2Sc2ccc(C(F)(F)F)cc21 = 14

The compound identified as COc1ccc(-c2nn(CC(=O)N3c4ccccc4Sc4ccccc43)c(=N)s2)cc1OC registered its zone of inhibition at 75 µg/mL at 25

Lab note: measured zone of inhibition at 75 µg/mL of CCCc1nn(CC(=O)N2c3ccccc3Sc3ccc(C(F)(F)F)cc32)c(=N)s1 was 7

Record N=c1sc(-c2ccc(Cl)cc2)nn1CC(=O)N1c2ccccc2Sc2ccc(Cl)cc21 . Reported zone of inhibition at 75 µg/mL: 20

Consider CCCc1nn(CC(=O)N2c3ccccc3Sc3ccccc32)c(=N)s1 . Its measured zone of inhibition at 75 µg/mL is 15

Noted for Cc1ccc(-c2nn(CC(=O)N3c4ccccc4Sc4ccccc43)c(=N)s2)cc1 : its zone of inhibition at 75 µg/mL reads 11

====

Please provide measured selectivity ratio for the entries that follow.
method: Selectivity index, ratio of IC50 for African green monkey Vero cells to MIC for Mycobacterium tuberculosis H37Rv ATCC 27294
Format: toxicity, cell-based
I'd appreciate a reply containing only the number, no unit.

// recorded selectivity ratio for CCCc1nn(CC(=O)N2c3ccccc3Sc3ccccc32)c(=N)s1 : 157

Entry N=c1sc(-c2ccc(Cl)cc2)nn1CC(=O)N1c2ccccc2Sc2ccc(Cl)cc21 ; selectivity ratio = 473

For reference, reported selectivity ratio for Cc1nn(CC(=O)N2c3ccccc3Sc3ccc(C(F)(F)F)cc32)c(=N)s1 stands at 219

The value of selectivity ratio measured for the compound Cc1nn(CC(=O)N2c3ccccc3Sc3ccccc32)c(=N)s1 turned out to be 271

For this compound ( Cc1ccc(-c2nn(CC(=O)N3c4ccccc4Sc4ccccc43)c(=N)s2)cc1 ), measured selectivity ratio is 269

Values from ChEMBL document CHEMBL3739317
